This collection of values is drawn from patent US11566007B2.

# maps each entry to its IC50
- TESTED ON: NRAS Q61K (Homo sapiens (Human), UniProt P01111+P62937, Q61K)
- Sequence (P01111 whole entry Q61K): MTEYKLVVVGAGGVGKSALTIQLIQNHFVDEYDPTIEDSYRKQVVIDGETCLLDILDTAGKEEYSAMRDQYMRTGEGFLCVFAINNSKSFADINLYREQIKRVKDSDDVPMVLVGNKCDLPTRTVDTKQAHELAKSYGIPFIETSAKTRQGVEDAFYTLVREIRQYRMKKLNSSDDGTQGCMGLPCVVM
- Sequence (P62937 whole entry): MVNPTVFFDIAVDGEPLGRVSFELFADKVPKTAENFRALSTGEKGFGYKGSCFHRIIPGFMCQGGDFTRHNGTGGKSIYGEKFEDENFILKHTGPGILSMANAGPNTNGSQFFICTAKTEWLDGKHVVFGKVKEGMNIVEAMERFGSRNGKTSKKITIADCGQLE
- PROTOCOL NOTES: Ras-Raf (BRAF RBD) disruption / FRET / MOA assay, NRAS Q61K
- Format: biochemical
- TEST CONTEXT: NRAS Q61K; Ras-Raf disruption/FRET/MOA assay; read-out: IC50* NRAS Q61K FRET data
PARAMETER MEASURED: IC50

MOLECULE	PARAMETER MEASURED	RECORDED VALUE
C=CC(=O)N(C)C[C@@H]1CCN(C(=O)N(C)[C@H](C(=O)N[C@H]2Cc3nc(cs3)-c3ccc4c(c3)c(c(-c3cccnc3[C@H](C)OC)n4CC)CC(C)(C)COC(=O)[C@@H]3CCCN(N3)C2=O)C(C)C)C1 (atropisomer, axis not shown) [Example A654]	IC50	10 to 100 nM
CO[C@@H](C)c1ncccc1-c1c2c3cc(ccc3n1CC(F)(F)F)-c1nc(co1)C[C@H](NC(=O)[C@H](C(C)C)N(C)C(=O)C1(F)CCN(C(=O)C#CC(C)(C)N(C)C)CC1)C(=O)N1CCC[C@H](N1)C(=O)OCC(C)(C)C2 (atropisomer, axis not shown) [Example A578]	IC50	100 to 1000 nM
CO[C@@H](C)c1ncccc1-c1c2c3cc(ccc3n1CC(F)(F)F)N1CCO[C@@H](C[C@H](NC(=O)[C@H](C(C)C)N3CC[C@]4(CCN(C(=O)C#CC(C)(C)N(C)C)C4)C3=O)C(=O)N3CCC[C@H](N3)C(=O)OCC(C)(C)C2)C1 (atropisomer, axis not shown) [Example A642]	IC50	> 10000 nM
C=CC(=O)N1CC[C@]2(C1)CN(C(=O)N(C)[C@H](C(=O)N[C@H]1Cc3nc(cs3)-c3ccc4c(c3)c(c(-c3cccnc3[C@H](C)OC)n4CC)CC(C)(C)COC(=O)[C@@H]3CCCN(N3)C1=O)C(C)C)CCO2 (atropisomer, axis not shown) [Example A354]	IC50	10 to 100 nM
